System: 786-0 renal
experiment-summary: NCI tumour cell line growth inhibition, 48 h
Reported TGI values follow for various molecules
Express the result in µM but write the number alone.

Request: What TGI value was documented for this molecule, Cc1ccc(C2CC(c3ccc(NC(=O)Nc4ccccc4)cc3)=NN2c2ccc(S(N)(=O)=O)cc2)cc1 (centres undefined) ?
Result: 15.7

Request: // same read-out, input: O=C(Nc1ccc(Cl)c(C(F)(F)F)c1)c1cncc(C#Cc2cnc3ccc(N4CCOCC4)nn23)c1
Result: 11.8

Request: // same read-out, input: OCc1[nH]nc2cc(Nc3ncc4ccc(Br)c(OC5CCC(O)CC5)c4n3)ccc12 (centres undefined)
Result: 2.7
